Target: δ opioid receptor (Homo sapiens)
Construct: expressed in transfected cells; host or cells: CHO cells (membranes)
Sequence (P41143 whole entry): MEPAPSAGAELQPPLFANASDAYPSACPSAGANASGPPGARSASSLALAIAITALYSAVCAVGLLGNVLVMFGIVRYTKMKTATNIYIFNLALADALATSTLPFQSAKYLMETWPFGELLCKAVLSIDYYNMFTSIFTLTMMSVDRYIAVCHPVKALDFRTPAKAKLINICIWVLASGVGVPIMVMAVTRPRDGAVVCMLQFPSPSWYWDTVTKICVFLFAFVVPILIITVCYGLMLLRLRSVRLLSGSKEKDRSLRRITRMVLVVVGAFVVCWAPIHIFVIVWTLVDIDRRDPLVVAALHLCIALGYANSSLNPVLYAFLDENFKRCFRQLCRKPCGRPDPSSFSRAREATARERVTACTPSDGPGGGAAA
Test: Competition binding assay on membranes of CHO cells expressing δ opioid receptor, [3H]-labeled ligand
Details: Table 5-1; read-out: δOR Ki

{"Compound": "COc1cccc(C2(O)CCN(C(=O)CCc3cccc(C(F)(F)F)c3)CC2CN(C)C)c1.Cl (centres unmarked) [FWBE10, hydrochloride]", "Value Relation Sign": ">", "Ki (µM)": 10}
{"Compound": "COc1cccc(C2(O)CCN(C(=O)Cc3ccc(Cl)c(Cl)c3)CC2CN(C)C)c1.Cl (centres unmarked) [FWBE17, hydrochloride]", "Value Relation Sign": "=", "Ki (µM)": 0.805}
{"Compound": "COc1cccc(C2(O)CCN(C(=O)C3(c4ccccc4)CC3)CC2CN(C)C)c1.Cl (centres unmarked) [FWBE24, hydrochloride]", "Value Relation Sign": "=", "Ki (µM)": 0.848}
{"Compound": "COc1cccc(C2(O)CCN(C(=O)C(C)(C)c3ccccc3)CC2CN(C)C)c1.Cl (centres unmarked) [FWBE23, hydrochloride]", "Value Relation Sign": "=", "Ki (µM)": 0.688}
{"Compound": "COc1cccc(C2(O)CCN(C(=O)Cc3cccc(Cl)c3)CC2CN(C)C)c1.Cl (centres unmarked) [FWBE9, hydrochloride]", "Value Relation Sign": "=", "Ki (µM)": 1.64}
{"Compound": "COc1cccc(C2(O)CCN(C(=O)Cn3ccc4ccccc43)CC2CN(C)C)c1.Cl (centres unmarked) [FWBE14, hydrochloride]", "Value Relation Sign": "=", "Ki (µM)": 1.18}
{"Compound": "COc1cccc(C2(O)CCN(C(=O)Cc3cccc(F)c3)CC2CN(C)C)c1.Cl (centres unmarked) [FWBE12, hydrochloride]", "Value Relation Sign": "=", "Ki (µM)": 2.39}
{"Compound": "COc1cccc(C2(O)CCN(C(=O)C3(c4ccccc4)CCC3)CC2CN(C)C)c1.Cl (centres unmarked) [FWBE25, hydrochloride]", "Value Relation Sign": "=", "Ki (µM)": 0.717}

* * *

Target: μ opioid receptor (Homo sapiens, UniProt P35372)
Construct: expressed in transfected cells; host or cells: CHO cells (membranes)
Sequence (P35372 whole entry, species assumed): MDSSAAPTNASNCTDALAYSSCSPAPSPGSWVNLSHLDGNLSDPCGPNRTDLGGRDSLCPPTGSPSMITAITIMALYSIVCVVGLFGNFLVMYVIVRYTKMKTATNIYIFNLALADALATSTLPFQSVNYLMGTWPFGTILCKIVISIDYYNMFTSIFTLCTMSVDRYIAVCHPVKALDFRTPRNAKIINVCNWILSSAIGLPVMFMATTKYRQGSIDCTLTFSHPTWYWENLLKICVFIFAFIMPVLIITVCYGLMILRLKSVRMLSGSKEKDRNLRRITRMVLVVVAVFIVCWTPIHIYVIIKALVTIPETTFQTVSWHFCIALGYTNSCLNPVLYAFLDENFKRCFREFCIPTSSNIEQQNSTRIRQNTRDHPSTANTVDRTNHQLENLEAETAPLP
Experiment: Competition binding assay on membranes of CHO cells expressing μ opioid receptor, [3H]-labeled ligand
Details: Table 2-1; read-out: μOR Ki
Where a name gives a salt, the structure may show the parent alone.

{"Molecule": "COc1cccc(C2(O)CCN(S(=O)(=O)Cc3ccc(C(F)(F)F)cc3)CC2CN(C)C)c1.Cl (stereo not shown) [FWBH17, hydrochloride]", "Reading Unit": "nM", "Ki": 261}
{"Molecule": "COc1cccc(C2(O)CCN(S(C)(=O)=O)CC2CN(C)C)c1.Cl (stereo not shown) [FWBH23, hydrochloride]", "Reading Unit": "nM", "Ki": 192}
{"Molecule": "COc1cccc(C2(O)CCN(S(=O)(=O)Cc3ccc(F)cc3)CC2CN(C)C)c1.Cl (stereo not shown) [FWBH12, hydrochloride]", "Reading Unit": "nM", "Ki": 39.2}
{"Molecule": "COc1cccc(C2(O)CCN(S(=O)(=O)C[C@]34CC[C@H](CC3O)C4(C)C)CC2CN(C)C)c1 (stereo partly shown) [FWBH27, hydrochloride]", "Reading Unit": "nM", "Ki": 32.5}
{"Molecule": "CCCS(=O)(=O)N1CCC(O)(c2cccc(OC)c2)C(CN(C)C)C1.Cl (stereo not shown) [FWBH19, hydrochloride]", "Reading Unit": "nM", "Ki": 133}
{"Molecule": "COc1cccc(C2(O)CCN(S(=O)(=O)Cc3cccc([N+](=O)[O-])c3)CC2CN(C)C)c1.Cl (stereo not shown) [FWBH22, hydrochloride]", "Reading Unit": "nM", "Ki": 212}
{"Molecule": "COc1cccc(C2(O)CCN(S(=O)(=O)Cc3cccc(Br)c3)CC2CN(C)C)c1.Cl (stereo not shown) [FWBH13, hydrochloride]", "Reading Unit": "nM", "Ki": 18.2}

// provenance: patent US12624004B2
